Reported OD450 values for the following binders.
# assayed system: T1, Human CD19-his protein (human, UniProt P15391 20-291)
# T1 construct: bought protein; also called human CD19 protein; recombinant human CD19-His; not shown: His tag
# T1 sequence (looked up): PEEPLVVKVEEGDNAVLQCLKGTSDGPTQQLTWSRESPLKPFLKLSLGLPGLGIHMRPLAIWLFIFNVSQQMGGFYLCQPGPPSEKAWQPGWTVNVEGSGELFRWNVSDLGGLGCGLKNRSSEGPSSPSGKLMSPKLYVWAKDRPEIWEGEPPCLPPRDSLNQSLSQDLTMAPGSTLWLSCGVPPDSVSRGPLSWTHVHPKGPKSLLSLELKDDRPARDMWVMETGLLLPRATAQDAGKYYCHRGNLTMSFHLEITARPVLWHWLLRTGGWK
# assay summary: ELISA, antibody at 0.001 nM
Reply with just the number.

// below: answered binders
What OD450 value was documented for this binder, F4.49.11 (antibody, human IgG1, V domains shown, human-murine chimeric antibody, human IgG1) VH: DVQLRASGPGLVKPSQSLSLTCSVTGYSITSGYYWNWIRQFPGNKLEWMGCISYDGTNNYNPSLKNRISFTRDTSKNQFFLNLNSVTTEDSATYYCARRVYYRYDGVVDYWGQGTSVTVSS VL: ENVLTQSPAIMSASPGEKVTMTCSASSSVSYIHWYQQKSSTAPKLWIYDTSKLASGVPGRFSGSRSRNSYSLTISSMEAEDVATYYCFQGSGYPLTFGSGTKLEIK ?
0.05

Request the reported OD450 associated with F4.180.1 (antibody, human IgG1, V domains shown, human-murine chimeric antibody, human IgG1) VH: EVQLQQSAPELVKPGASVKMSCKTSGYTFTENIIHWVKQTHGKSLEWIGGINPDNGGTSYHQKFKGRTTLTIDKSSSTAYMELRSLTSDDSAVFFCARQAPLYWYFDIWGAGTTVTVSS VL: DIVLTQSPASLAVSLGQRATISCRASESVDSYGNSLMHWFQQKPGQPPRLLIYRASNLESGIPARFSGSGSRTDFTLTITPVEADDVATYYCQQSNEDPWTFGGGTKLEIK
0.06

Now, please, on to the next binder.
Looking for the measured OD450 of F3.23.10 (antibody, human IgG1, V domains shown, human-murine chimeric antibody, human IgG1) VH: EFQLQQSGPELVKPGASVKISCKASDYSFTDYNMNWVKQSNGASLEWIGIINPNFGSTSYNQKFKGKATLTVDQSSSTAFMQLNSLTSEDSAVYYCARSEYYGSSGFAYWGQGTLVTVSA VL: DVVVTQTPLSLPVSFGDQVSISCRSSQSLVNSYGNTYLSWYLHKPGQSPQLLIYGISNRFSGVPDRFSGSGSGTDFTLKITTIKPEDLGMYYCLQGTHQPWTFGGGTKLEIK , can you help?
0.06

Hello, the source for this data is patent US20250042994A1, in case you need it.
